# GI50 listing for each entry below
system: SF-539; test: NCI tumour cell line growth inhibition, 48 h
Active and inactive are the calls of the source. Rule as the data show it: active = GI50 up to about 1.1 µM and inactive = higher.

Please review the entries below; each comes with its answer.
molecule	value-measured
Cn1c(-c2cccs2)cc(-c2ccsc2)c1-c1cccs1	> 100 µM (inactive)
CCn1c2c(c3ccccc3c1=O)C(=O)c1ccccc1-2	19.1 µM (inactive)
COc1cc(/C=C/C(=O)O)ccc1C(=O)O/C=C/c1ccccc1	> 100 µM (inactive)
O=C(c1ccccc1)c1ccc2c(c1)NC(=O)c1ccccc1SSc1ccccc1C(=O)N2	> 100 µM (inactive)
O=C(c1cccs1)N(Cc1cccnc1)C(=S)N(Cc1cccnc1)C(=O)c1cccs1	29.9 µM (inactive)

Ask: Give its GI50 value. Item: N=C(N)NS(=O)(=O)c1ccc(NC(=O)c2cccc3c(N)c4ccccc4nc23)cc1
Result: > 100 µM (inactive)

Ask: Returns the measured GI50 for the input molecule. Input: CCN(CC)c1ccc(/C=C2\CCc3ccc([N+](=O)[O-])cc3C2=O)cc1
Result: 2.25 µM (inactive)

Ask: GET /values?readout=GI50&item= Cn1nc(-c2ccccc2)c2c(/C=C/c3ccc(F)cc3)onc2c1=O
Result: 61.9 µM (inactive)

Ask: Using the record for COc1ccc(-c2nc3ccccc3s2)cc1OC , report its GI50.
Result: 54.6 µM (inactive)

Ask: Return reported GI50; argument: Oc1ccc2ccccc2c1/C=C/c1ccc2c(Br)cc(Br)c(O)c2n1
Result: 2.53 µM (inactive)

###

test system: HT-29; assay: NCI tumour cell line growth inhibition, 48 h
The source made the active and inactive calls. Cut-off read from the data, not from the text of the source: active = GI50 up to about 1.1 µM and inactive = higher.
Overview of recorded GI50 for various molecules

molecule	GI50
Cc1cc(S(=O)(=O)Nc2nc(N)n(-c3ccccc3)n2)c(S)cc1Cl	> 100 µM (inactive)
C#CCOCC12C=CC(O1)C1COC(=O)C12 (centres undefined)	> 100 µM (inactive)
CCCCCCCCCCC[N+]1(Cc2ccccc2)CC2CCN(Cc3ccccc3)CC2C1 (centres undefined)	0.377 µM (active)
CCCCC1(OC(=O)CCC(=O)O)CCC2(CCC(C)C(C/C=C(C)/C=C/C(O)C(C)/C=C/C(=O)O)O2)OC1CC/C(C)=C/C(=O)O (centres undefined)	10.3 µM (inactive)
N#CC(C#N)=Cc1ccc(CP(=O)(O)O)cc1	> 100 µM (inactive)
CSc1nc(Cl)c(Br)c(Nc2cnc(O)nc2O)n1	15.8 µM (inactive)
CNC(=O)SCC(NC(=O)CCC(N)C(=O)O)C(=O)NCC(=O)O (centres undefined)	> 84.5 µM (inactive)
O=c1c(C(c2cnc3ccccc3c2)c2c(O)oc3ccccc3c2=O)c(O)oc2ccccc12	33.4 µM (inactive)

Ask: What GI50 appears in the records for this molecule with HT-29? CC[C@H](C)C1=C(OC(C)=O)[N@+]2([O-])Oc3ccc(-c4c(O)c(O)c(-c5ccc(OC(C)=O)cc5)c(OC(C)=O)c4OC(C)=O)cc3O[C@]2([C@@H](C)CC)C(=O)N1O
Result: 17.6 µM (inactive)

###

test system: TK-10; experiment: NCI tumour cell line growth inhibition, 48 h
The source made the active and inactive calls. Cut-off read from the data, not from the text of the source: active = GI50 up to about 1.1 µM and inactive = higher.
value-type: GI50

Solved entries (count: 2):
structure-smiles-string	tested-on	value-type	value-measured
COC(=O)[C@H]1COC(=O)N1	TK-10	GI50	> 100 µM (inactive)
COC(=O)c1cc(CC2Cc3cc4c(cc3C2)CCC4)cc2c1CCC2	TK-10	GI50	> 100 µM (inactive)

Ask: GI50 for COc1cc(C=C2N=C(c3ccccc3)N(n3c(-c4ccccc4)nc4ccccc4c3=O)C2=O)cc(OC)c1OC ?
Result: 45.9 µM (inactive)

Ask: Please give the measured GI50 for this molecule: O=C(CCc1nnc2s/c(=C\c3ccccc3)c(=O)n12)Nc1cc(Cl)ccc1Cl
Result: > 100 µM (inactive)

Ask: I am curious: what GI50 value has been reported for CN(c1ccccc1Cl)S(=O)(=O)c1ccccc1[N+](=O)[O-] ?
Result: 82 µM (inactive)

###

Examples of compounds with documented GI50 follow.
system: KM-20L2; assay: NCI tumour cell line growth inhibition, 48 h
Active and inactive are the calls of the source. Rule as the data show it: active = GI50 up to about 1.1 µM and inactive = higher.

Known GI50 results, listed for orientation:
compound	value-type	value-measured
Cc1c2ccncc2c(C)c2c1[nH]c1ccc(OCC(F)(F)F)cc12	GI50	1.47 µM (inactive)
CC(C)C1=Cc2ccc3c(c2C(=O)C1=O)CCCC3(C)C	GI50	20.3 µM (inactive)
BrC(Br)([P+](c1ccccc1)(c1ccccc1)c1ccccc1)[P+](c1ccccc1)(c1ccccc1)c1ccccc1	GI50	24.9 µM (inactive)
Cc1c(N)nc([C@H](CC(N)=O)NC[C@H](N)C(N)=O)nc1C(=O)N[C@H](C(=O)N[C@H](C)[C@@H](O)[C@H](C)C(=O)N[C@H](C(=O)NCCc1nc(-c2nc(C(=O)NCCC[S+](C)C)cs2)cs1)[C@@H](C)O)C(OC1OC(CO)C(O)C(O)C1OC1OC(CO)C(O)C(OC(N)=O)C1O)c1c[nH]cn1 (some centres undefined)	GI50	19.9 µM (inactive)
CC1=C(C(=O)NNS(=O)(=O)c2ccc(C)cc2)CC(C(=O)NNS(=O)(=O)c2ccc(C)cc2)=C(C)N1	GI50	> 100 µM (inactive)
Cc1oc2c(C)c(O)c3c(c2c1C1(C)OCCO1)C(=O)C=C(Cl)C3=O	GI50	> 100 µM (inactive)
Cn1c(=O)c(C(c2ccc([N+](=O)[O-])cc2)c2c(O)c3ccccc3n(C)c2=O)cc2ccccc21 (centres undefined)	GI50	45 µM (inactive)
COc1ccc(N2C(=O)C3c4[nH]c5ccccc5c4C4CC(C)CC(C)C4C3C2=O)cc1 (centres undefined)	GI50	> 100 µM (inactive)

Ask: Fill in: GI50 of COc1cc(/C=C/C(=O)O)ccc1C(=O)O/C=C/c1ccccc1 is ___
Result: > 100 µM (inactive)

Ask: Consider the compound shown here: COc1ccc(NC(=O)CC/C(CC(=O)c2ccco2)=N/Nc2ccc([N+](=O)[O-])cc2[N+](=O)[O-])cc1 What is its recorded GI50?
Result: > 100 µM (inactive)

Ask: Quick one: GI50 for Cc1ccc(NC(=O)C(=O)C2C(=O)N(c3ccccc3)N=C2N)cc1C (centres undefined) ?
Result: > 100 µM (inactive)

Ask: Report GI50 for CC(C)(C)[C@H]1CO[C@]2(C)[C@@H]3C[C@@H]3C(=O)N12 please.
Result: > 100 µM (inactive)

Ask: GI50 lookup needed for C/C=C1/C=CC2c3[nH]c4ccccc4c3CCN2C1 (centres undefined) , thanks.
Result: > 400 µM (inactive)

Ask: Recorded GI50 of NC(=O)Nc1c([N+](=O)[O-])cc(C(F)(F)F)cc1[N+](=O)[O-] , please.
Result: 29.2 µM (inactive)

###

system: UACC-62; experiment: NCI tumour cell line growth inhibition, 48 h
The source made the active and inactive calls. No stated cut-off is given here; in the data, active = GI50 up to about 1.1 µM and inactive = higher. Bridge positions count the residues as written; N and C are the ends. Square brackets hold non-standard residues; d marks the D form. Peptide text beside a SMILES is read from it. * marks the point of attachment. Cya = N[CH](CS(=O)(=O)O)C(=O)O; X49 = CC(C)CCCCCCCC(O)CC(=O)*; GABA = NCCCC(=O)O
value-type: GI50

Some solved entries appear below for comparison.
molecule	value-measured
CC1CC(=O)N(N(C)C)C2(C#N)C(=O)N=C(N)C12C#N (configuration not stated)	35.8 µM (inactive)
CC(=O)OC1COC(n2c3ccccc3c3ccc4c5ccccc5[nH]c4c32)C(OC(C)=O)C1OC(C)=O (configuration not stated)	67.9 µM (inactive)
C[N+]1(C)CC=C(N2CCOCC2)CC1	> 10 µM (inactive)
O=[N+]([O-])c1cccc(/C=N/N=c2\ccc3ccccc3[nH]2)c1O	1.43 µM (inactive)
CN(C)C1(c2cc3ccccc3s2)CCCCC1	20.5 µM (inactive)
CC(C)CCCCCCCC(O)CC(=O)NC(CS(=O)(=O)O)C(=O)NC(CC(C)C)C(=O)NCCCC(=O)NC(Cc1c[nH]cn1)C(=O)NC(C)C(=O)NC1C(=O)NC(C(C)O)C(=O)NC(Cc2c[nH]cn2)C(=O)NC(C)C(=O)NC(C(C)O)C(=O)OC1C (configuration not stated) (X49-[Cya]L[GABA]HATTHAT; ester 6-C; configuration not given here)	> 25 µM (inactive)

Ask: Notebook entry, UACC-62 assay: GI50 of CCOc1ccccc1Nc1ccc(N)cc1S(=O)(=O)O = ?
Result: > 100 µM (inactive)

###

test system: RPMI-8226; assay: NCI tumour cell line growth inhibition, 48 h
Calls of active or inactive are those of the source. Rule as the data show it: active = GI50 up to about 1.1 µM and inactive = higher.
Give your call using only these classes: active, inactive

molecule	label-value
CC1(C)OCN(c2ccc(Cl)cc2)Cn2c1nc1ccccc12	inactive
CCN1/C(=C/C#C/C(C)=C\c2sc3ccc(Cl)cc3[n+]2CC)Sc2ccc(Cl)cc21	inactive

Ask: Entry Nc1nc(O)c([I+]c2ccccc2)c(=O)[nH]1 : call = ?
Result: inactive

Ask: # outcome recorded in this test, key = COC(=O)C1=NN2c3ccccc3CN([C@@H](C)c3ccccc3)C(=O)[C@@H]2C1
Result: inactive

Ask: I'd appreciate the recorded outcome for Oc1ccc2ccccc2c1/C=C/c1ccc2c(Br)cc(Br)c(O)c2n1 from this test.
Result: inactive

Ask: Record request — test call for CN(C)CC1CCC/C(=C\c2ccc(N(C)C)cc2)C1=O (stereo not drawn)
Result: inactive

Ask: Call for entry O=C1C=C(N2CC2)C(=O)C=C1N1CC1 :
Result: active

Ask: Please indicate how the test categorized N#CC(Cc1ccccc1)N(CCC1=CCCCC1)C(c1ccccc1)c1ccccc1 (stereo not drawn) .
Result: inactive

Ask: Just curious, what result did COc1cc(/C=C/C(=O)O)ccc1C(=O)O/C=C/c1ccccc1 get here?
Result: inactive

The reported measurements were obtained from ChEMBL document CHEMBL1201862.
